Source: patent US8426429B2

Target desc: β-secretase (BACE) (Homo sapiens, UniProt P56817)
Construct: purchased Panvera
Sequence (P56817 46-501): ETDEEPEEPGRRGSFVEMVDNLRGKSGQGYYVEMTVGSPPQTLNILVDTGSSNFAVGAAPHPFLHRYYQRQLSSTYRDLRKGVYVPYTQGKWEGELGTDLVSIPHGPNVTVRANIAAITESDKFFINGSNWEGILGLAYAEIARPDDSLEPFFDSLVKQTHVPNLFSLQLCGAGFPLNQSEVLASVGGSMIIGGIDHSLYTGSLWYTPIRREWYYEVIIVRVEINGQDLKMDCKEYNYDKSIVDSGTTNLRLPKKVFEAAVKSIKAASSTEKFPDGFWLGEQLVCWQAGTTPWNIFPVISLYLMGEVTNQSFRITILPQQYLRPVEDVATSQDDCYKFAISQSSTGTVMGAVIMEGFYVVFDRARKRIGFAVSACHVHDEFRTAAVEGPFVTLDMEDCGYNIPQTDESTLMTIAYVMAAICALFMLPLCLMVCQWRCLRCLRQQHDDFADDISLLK
Test details: BACE FS1 % Inhibition Assay
Type: biochemical
Setup conditions: 3 μM test compound; 3 µM
Readout label: % Inhibition (FS) (%)

I: NC1=Nc2ccc(-c3ccc(F)cc3)cc2CN1CCNC(=O)C1CCCCC1 [Compound 624]
II: CN(C(=O)c1ccc2c(c1)C(N1Cc3cc(Oc4ccccc4)ccc3N=C1N)c1ccccc1-2)C1CCCCC1 (stereo not shown) [Compound 118]
IN: // which entry reports the smaller % Inhibition (FS), I or II ? Identify your selection by its label.
OUT: II
(II: 48%, I: 78%)

P: CCCC(CNC(=O)C1CCCCC1)N1Cc2cc(Oc3ccccc3)ccc2N=C1N (stereo not shown) [Compound 554]
Q: CCCC(CNC(=O)C1CCCCC1)N1Cc2cc(Oc3ccccc3)ccc2N=C1N (stereo not shown) [Compound 601]
IN: // compare measured % Inhibition (FS), left P , right Q , return larger Identify your selection by its label.
OUT: Q

---

Target desc: β-secretase (BACE) (Homo sapiens, UniProt P56817)
Construct: purchased Panvera
Test details: BACE FS1 % Inhibition Assay
Assay type: biochemical
Setup conditions: 0.3 μM compound; FS1 substrate; read-out: % Inhibition (FS)
Readout label: inhibition at 0.3 µM (%)

Look over these answered cases.
[
  {
    "Compound": "COC(=O)[C@H]1CC[C@H](NC(=O)CC[C@@H](C2CCOCC2)N2Cc3cc(Oc4ccccc4)ccc3N=C2N)CC1 [Compound 747]",
    "Observed": 41
  },
  {
    "Compound": "CC(C)N1CCC(N(C)C(=O)CC[C@@H](C2CCCCC2)N2Cc3cc(Oc4ccccc4)ccc3N=C2N)CC1 [Compound 728]",
    "Observed": 43
  }
]

A: CN(C(=O)CCC(C1CCCCC1)N1Cc2cc(Oc3ccccc3)ccc2N=C1N)C(COCc1ccccc1)C(=O)O (stereo not drawn) [Compound 781]
B: CN(CCCCC(=O)O)C(=O)CC[C@@H](C1CCCCC1)N1Cc2cc(Oc3ccccc3)ccc2N=C1N [Compound 752]
IN: // which entry reports the smaller inhibition at 0.3 µM, A or B ? Identify your selection by its label.
OUT: B

---

Target desc: β-secretase (BACE) (Homo sapiens, UniProt P56817)
Construct: purchased Panvera
Test details: BACE FS1 % Inhibition Assay
Type: biochemical
Setup conditions: 1 μM compound; FS1 substrate
Protocol: The following reagents were used in this assay: sodium acetate, PEG8000 (Sigma), DMSO, HEPES, FS1 substrate [[…]] […] The FS1-substrate stock solution was prepared in DMSO as a 10 mg/mL solution. The FS1-substrate working solution was prepared by diluting the 10 mg/mL stock solution with substrate assay buffer to a final concentration of 300 μg/mL. […] For test compounds, % inhibition was determined at each concentration as follows: [formula]
Readout label: % Inhibition (FS) (%)

Look over these answered cases.
[
  {
    "Molecule": "CC(CC(=O)NCCN1Cc2cc(-c3ccccc3F)ccc2N=C1N)C(F)(F)F (centres unmarked)",
    "Target desc": "β-secretase (BACE) (Homo sapiens, UniProt P56817)",
    "Readout label": "% Inhibition (FS)",
    "Observed": 100
  },
  {
    "Molecule": "NC1=Nc2ccc(-c3ccccc3Cl)cc2CN1CCNC(=O)CCC(F)(F)F",
    "Target desc": "β-secretase (BACE) (Homo sapiens, UniProt P56817)",
    "Readout label": "% Inhibition (FS)",
    "Observed": 77
  }
]

a: NC1=Nc2ccc(Oc3ccccc3)cc2CN1[C@@H](CCC(=O)N[C@@H](COCc1ccccc1)C(=O)O)C1CCOCC1
b: CNC(=O)C1CCC(N(C)C(=O)CCC(C2CCCCC2)N2Cc3cc(Oc4ccccc4)ccc3N=C2N)CC1 (centres unmarked)
IN: // which entry reports the smaller % Inhibition (FS), a or b ? Identify your selection by its label.
OUT: b
